TARGET_DESC: Cytochrome P450 2C19 (Homo sapiens)
TEST_PROTOCOL: Cytochrome panel assay with activity outcomes
DETAILS: recombinant CYP, pro-luciferin dealkylation, luminescence, p450-cyp2c19; series mostly up to 57.1 µM
Screen size: about 16,000 compounds; about 5,800 (36%) were called active. Inconclusive results (about 23%) are left out. The call rests on the fitted dose curve; in most records, active means well fitted curve in the direction sought with a large enough effect; inconclusive means small, poorly fitted or top-dose-only effect, or effect the other way; inactive means no such curve, though single readings can be large or run the other way. Some of the results follow.
Outcome codes: 1 (yes) (active), 0 (no) (inactive)

1. CC(=O)C1C(c2ccccc2OC(F)F)NC(=O)NC1(O)C(F)(F)F (stereo not given) : 0 (no)
2. CN(Cc1ccccc1)S(=O)(=O)c1ccc(OCC(=O)N2CCOCC2)cc1 : 0 (no)
3. CCn1c(SCc2cccc(C)c2)nnc1-c1ccccc1 : 1 (yes)
4. Cc1ccc2nc(SCc3nc4c(cnn4-c4ccccc4)c(=O)[nH]3)[nH]c2c1 : 1 (yes)
5. CCOC(=O)CC1C(=O)NCCN1S(=O)(=O)c1ccc(Cl)c(Cl)c1 (stereo not given) : 1 (yes)
6. CC[C@]1(O)C[C@@H]2CN(CCc3c([nH]c4ccccc34)[C@](C(=O)OC)(c3cc4c(cc3OC)N(C)[C@H]3[C@](O)(C(=O)OC)[C@@H](C(=O)OC)[C@@]5(CC)C=CCN6CC[C@@]43[C@@H]65)C2)C1 : 0 (no)
7. O=C(Cn1c(=O)n(Cc2ccco2)c(=O)c2c3c(sc21)CCCCC3)c1ccccc1 : 1 (yes)
8. O=C(C1CCN(S(=O)(=O)c2cccc3nsnc23)CC1)N1CCc2ccccc21 : 1 (yes)
9. CC(=O)c1cnc2c(C(=O)O)cnn2c1C : 0 (no)
10. Cc1nc2ncnn2c(C)c1CCC(=O)N1CCN(C(=O)c2ccco2)CC1 : 0 (no)

----------
TARGET_DESC: Cytochrome P450 2C19 (Homo sapiens)
TEST_PROTOCOL: Cytochrome panel assay with activity outcomes
DETAILS: recombinant CYP, pro-luciferin dealkylation, luminescence, p450-cyp2c19; series mostly up to 57.1 µM
Hit rate of the full screen: of about 16,000 compounds, about 5,800 (36%) were called active. About 23% were inconclusive and are not listed. Calls follow the shape of the dose curve; as a rule, active = well fitted curve in the direction sought with a large enough effect; inconclusive = small, poorly fitted or top-dose-only effect, or effect the other way; inactive = no such curve, though single readings can be large or run the other way. The list shows a part of the results.
Outcome codes: yes = active, no = inactive

1. Cn1cc(-c2nc3cnc(N4CCNCC4)nc3n(-c3ccccc3)c2=O)c2ccccc21 : no
2. Cn1cc(-c2nc3cnc(N4CCNCC4)nc3n(C3CC3)c2=O)c2ccccc21 : yes
3. CC(C)c1ccc2nc3sc(C(=O)N4CCc5ccccc5C4)c(N)c3cc2c1 : yes
4. CCN(CC)CCOC(=O)[C@@H](Cc1cccc2ccccc12)C[C@@H]1CCCO1 : no
5. COc1ccc(-n2c(=O)c(-c3cn(C)c4ccccc34)nc3cnc(N4CCNCC4)nc32)cc1 : no
6. CN1CCN(c2ncc3nc(-c4cn(C)c5ccccc45)c(=O)n(C)c3n2)CC1 : no
7. c1cc2c(cc1C1CCCCC1)c1c3n2CCN[C@H]3CCC1 : yes
8. CC(/C=C/c1ccccc1)=N/NC(=O)CNC(=O)c1ccc2c(c1)OCO2 : no

----------
TARGET_DESC: Cytochrome P450 2C19 (Homo sapiens) (UniProt P33261)
Sequence (P33261 whole entry, looked up): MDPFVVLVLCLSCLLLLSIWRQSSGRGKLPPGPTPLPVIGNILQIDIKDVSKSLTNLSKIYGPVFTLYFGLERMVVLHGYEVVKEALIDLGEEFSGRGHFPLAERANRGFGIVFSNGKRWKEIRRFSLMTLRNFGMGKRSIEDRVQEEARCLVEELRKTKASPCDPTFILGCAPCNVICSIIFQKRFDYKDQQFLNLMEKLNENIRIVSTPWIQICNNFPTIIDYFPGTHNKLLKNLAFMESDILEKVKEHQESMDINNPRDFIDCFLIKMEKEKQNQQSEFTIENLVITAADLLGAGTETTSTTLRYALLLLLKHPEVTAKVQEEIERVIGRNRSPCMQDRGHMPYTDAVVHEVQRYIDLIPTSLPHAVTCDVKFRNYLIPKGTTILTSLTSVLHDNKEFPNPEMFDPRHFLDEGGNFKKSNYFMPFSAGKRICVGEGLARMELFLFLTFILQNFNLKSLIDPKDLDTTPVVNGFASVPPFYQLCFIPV
TEST_PROTOCOL: Cytochrome panel assay with activity outcomes; on activity, negative = inhibition: on the % scale 0 is the no-effect control and ±100 the full control effect
DETAILS: recombinant CYP, pro-luciferin dealkylation, luminescence, p450-cyp2c19; series mostly up to 57.1 µM
Protocol: The P450 gene superfamily is involved in the metabolism and clearance of xenobiotics. This assay used various human CYP P450 isozymes to measure the dealkylation of various pro-luciferin substrates to luciferin. The luciferin is then measured by luminescence after the addition of a luciferase detection reagent. […] Inhibitors and some substrates limit the production of luciferin, and decrease measured luminescence. […] 8, Detection, 1 sec, ViewLux luminescent read […]
Among all 16,000 compounds or so, about 5,800 (36%) were called active. Another 23% or so got no clear call; they are omitted. Some of the results follow.
READOUT_NAME: activity, negative = inhibition

1. Cc1cc(O)c(C(C)C)cc1CN1CCCCC1 : 32.6% [at 11.4 µM] (inactive)
2. O=C(O)c1cc2c(cc1S(=O)(=O)O)[C@H]1[C@@H]([C@H]3[C@H]2[C@@]2(Cl)C(Cl)=C(Cl)[C@]3(Cl)C2(Cl)Cl)[C@]2(Cl)C(Cl)=C(Cl)[C@@]1(Cl)C2(Cl)Cl : -16.5% [at 11.4 µM] (inactive)
3. O=C(CSC1=NCCN1)Nc1ccccc1 : -1.95% [at 11.4 µM] (inactive)
4. O=P(O)(O)O[C@@H]1O[C@H](CO)[C@@H](O)[C@H](O)[C@@H]1O : 38.5% [at 11.4 µM] (inactive)
5. C[C@@H]1C[C@H](C)CN(S(=O)(=O)c2cc(Cl)c(Oc3ccc([N+](=O)[O-])cc3Cl)c(Cl)c2)C1 : -27.5% [at 11.4 µM] (inactive)
6. CC(=O)C=NCC(=O)O : -14.5% [at 11.4 µM] (inactive)
7. CC(C)C(=O)C(C)(C)CCc1ccccn1 : -41.1% [at 11.4 µM] (inactive)
8. CO/N=C(\C)CCN1CCCc2nc(C)c(C)cc21 : -7.2% [at 11.4 µM] (inactive)
9. CN1CCCN(C)C1c1cc([N+](=O)[O-])ccc1O : -15% [at 11.4 µM] (inactive)
10. COC(=O)C/C=C\[C@H](C)[C@@H](OC)c1ccccc1Br : -6.61% [at 11.4 µM] (inactive)
11. CCN1C(=O)[C@H]2[C@H]3[C@H](O)[C@H](O)C/C(=N/O[C@@H]4O[C@@H](COC(C)=O)[C@@H](OC(C)=O)[C@@H](OC(C)=O)[C@H]4OC(C)=O)[C@H]3CC[C@@H]2C1=O : 16.6% [at 11.4 µM] (inactive)
12. C[C@H]1C[C@H]2[C@H]3CCC4=CC(=O)C=C[C@@]4(C)[C@]3(F)[C@H](O)C[C@]2(C)[C@@]1(O)C(=O)COP(=O)(O)O : 18.4% [at 11.4 µM] (inactive)
13. CC(=O)OC[C@@H]1O[C@@H](O/N=C2/C[C@@H](O)[C@@H](O)[C@@H]3[C@@H]4C(=O)N(C[C@@H]5CCCO5)C(=O)[C@H]4CC[C@@H]23)[C@H](OC(C)=O)[C@H](OC(C)=O)[C@@H]1OC(C)=O : 3.68% [at 11.4 µM] (inactive)
14. N[C@@H](CC1=CS(=O)(=O)c2ccc(Cl)cc21)C(=O)O : -36.6% [at 11.4 µM] (inactive)
15. Nc1ccc(C(=O)C[C@H](N)C(=O)O)cc1O : -13.9% [at 11.4 µM] (inactive)
16. CC1(C)[C@@H]2CC[C@]1(C)[C@@H](OC(=O)CSC#N)C2 : -26.6% [at 11.4 µM] (inactive)
17. O=C(O)[C@@H](O)Cc1ccccn1 : 14.4% [at 11.4 µM] (inactive)
18. O=C(O)c1cccc(CN2CCCCC2)c1 : 9.75% [at 11.4 µM] (inactive)
19. c1c[nH]c(CN2CCOCC2)n1 : -4.4% [at 11.4 µM] (inactive)
20. O=S(=O)(O)c1ccc(N=Nc2ccccc2)cc1 : 6.93% [at 11.4 µM] (inactive)
21. NC(=S)SCCC(=O)O : -6.93% [at 11.4 µM] (inactive)
22. O=c1n(-c2ccccc2)c(=O)n2n1CC[C@H]1/C(=N\OCc3ccccc3)[C@H]3O[C@@H]3[C@@H](O)[C@@H]12 : 44.7% [at 11.4 µM] (inactive)
23. O=C(O)c1cccc(OCCO)c1 : 13.7% [at 11.4 µM] (inactive)
24. O=C(O)CS(=O)c1ccc2c3c(cccc13)C(=O)c1ccccc1-2 (stereo not drawn) : -37% [at 11.4 µM] (inactive)
25. N=C(N)[C@H](N=Nc1ccccc1)C(N)=O : -26.2% [at 11.4 µM] (inactive)
26. O=C(O)CCC(=O)c1ccc2sc3ccccc3c2c1 : 9.52% [at 11.4 µM] (inactive)
27. CC(=O)OC[C@@H]1O[C@@H](O/N=C2/C[C@@H](O)[C@@H](O)[C@@H]3[C@H]4C(=O)N(c5ccc(F)cc5F)C(=O)[C@@H]4CC[C@@H]23)[C@H](OC(C)=O)[C@H](OC(C)=O)[C@@H]1OC(C)=O : 51.5% [at 11.4 µM] (inactive)
28. O=C(O)c1cc(-c2ccc(-c3ccc(-c4cc(C(=O)O)c5cc(Cl)ccc5n4)cc3)cc2)nc2ccc(Cl)cc12 : -23.2% [at 11.4 µM] (inactive)
